assay: Cell viability (survival) assay with CellTiter-Glo, 48 hours; format: cell-based, mouse; settings: mouse, B16F10 melanoma tumor cells; 50 uM, 48 hours, normalized to DMSO-treated control cells
Attribute: viability at 48 h, 50 µM
Unit % implied. Number only.

COMPOUND	VALUE UNIT	REPORTED
COc1cc([C@@H]2c3cc4c(cc3[C@@H](O[C@@H]3O[C@@H]5CO[C@@H](C)O[C@H]5[C@H](O)[C@H]3O)[C@H]3COC(=O)[C@H]23)OCO4)cc(OC)c1O [Etop, etoposide]	%	36.1
COc1cccc2c1C(=O)c1c(O)c3c(c(O)c1C2=O)C[C@@](O)(C(=O)CO)C[C@@H]3O[C@H]1C[C@H](N)[C@H](O)[C@H](C)O1	%	0.126
O=c1[nH]cc(F)c(=O)[nH]1	%	42.8

Which viability at 48 h, 50 µM is listed for `O=C1c2c(O)ccc(O)c2C(=O)c2c(NCCNCCO)ccc(NCCNCCO)c21` ?
0.000452
